# experimental system: MKNK1 (Homo sapiens, UniProt Q9BUB5, T385D)
# Construct: GST (N); purchased Carna Biosciences 02-145; host or cells: insect cells (baculovirus expression system)
# Sequence (Q9BUB5 1-424 isoform Q9BUB5-2 T344D): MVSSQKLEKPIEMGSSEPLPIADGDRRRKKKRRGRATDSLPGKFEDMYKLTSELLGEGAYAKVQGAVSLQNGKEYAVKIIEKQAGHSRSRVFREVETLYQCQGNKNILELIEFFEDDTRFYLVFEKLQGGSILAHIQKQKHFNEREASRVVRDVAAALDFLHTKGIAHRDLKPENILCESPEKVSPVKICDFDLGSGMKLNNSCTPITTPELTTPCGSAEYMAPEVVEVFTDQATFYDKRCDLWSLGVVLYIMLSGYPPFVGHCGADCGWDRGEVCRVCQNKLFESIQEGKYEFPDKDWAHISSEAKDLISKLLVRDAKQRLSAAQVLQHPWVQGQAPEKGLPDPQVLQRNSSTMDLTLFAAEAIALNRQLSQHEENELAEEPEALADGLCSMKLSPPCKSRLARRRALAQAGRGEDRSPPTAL
# measurement protocol: MKNK1 kinase assay (MKNK1 TR-FRET assay)
# Type: biochemical
# experimental setup: Table 1b; 10 μM ATP, 15 min preincubation
pIC50: −log10 of the molar value.
metric: pIC50

Answered cases to consult:
Asked: Test system MKNK1 (Homo sapiens, UniProt Q9BUB5, T385D); read-out pIC50; what value for CC(C)(C)OC(=O)N[C@H]1C[C@H](Oc2ccc3ncc(-c4cc5c(N6CCOCC6)cccc5o4)n3n2)C1 ?
Given back: 6.96

Asked: Test system MKNK1 (Homo sapiens, UniProt Q9BUB5, T385D); read-out pIC50; what value for c1cc(N2CCOCC2)c2cc(-c3cnc4ccc(O[C@@H]5CCNC5)nn34)oc2c1 ?
Given back: 7.41

Asked: Test system MKNK1 (Homo sapiens, UniProt Q9BUB5, T385D); read-out pIC50; what value for COC[C@H]1CCCN1c1cccc2oc(-c3cnc4ccc(OC[C@@H](C)N)nn34)cc12 ?
Given back: 9.10

Asked: Test system MKNK1 (Homo sapiens, UniProt Q9BUB5, T385D); read-out pIC50; what value for C[C@@H]1CNCCN1c1cccc2oc(-c3cnc4ccc(OC[C@H]5CCC(=O)N5)nn34)cc12 ?
Given back: 9.05

Asked: Test system MKNK1 (Homo sapiens, UniProt Q9BUB5, T385D); read-out pIC50; what value for C[C@@H]1COCCN1c1cccc2oc(-c3cnc4ccc(OC[C@H]5CCC(=O)N5)nn34)cc12 ?
Given back: 8.28

[a] C[C@H]1CN(c2cccc3oc(-c4cnc5ccc(OC[C@H]6CCC(=O)N6)nn45)cc23)CCO1
[b] C[C@H]1CN(c2cccc3oc(-c4cnc5ccc(OC[C@@H]6CCC(=O)N6)nn45)cc23)CCO1
Asked: Between the entries labelled a and b , which has a larger pIC50 value on record? When you have decided, please share the label of that item.
Given back: a
(a: 8.66, b: 7.63)
